assay_protocol: RP-TLC lipophilicity, silica gel C18, methanol-water
Type: physicochemical
study_conditions: RP-TLC silica gel C18, slope of Soczewiński–Wachtmeister equation
readout_type: b

- compound: "CCn1cc(C(=O)O)c(=O)c2cnc(N3CC[N+]4(CC3)CN3C(C)=CC(C)=C(C(=O)O)C3=N4)nc21.[Cl-]"
  value_observed: "−1.04"
- compound: "CC1=CC(C)=C(C(=O)O)C2=N[N+]3(CCN(c4cc5c(cc4F)c(=O)c(C(=O)O)cn5C4CC4)CC3)CN12.[Cl-]"
  value_observed: "−1.85"
- compound: "CCn1cc(C(=O)O)c(=O)c2cc(F)c(N3CC[N+]4(CC3)CN3C(C)=CC(C)=C(C(=O)O)C3=N4)nc21.[Cl-]"
  value_observed: "−1.59"
- compound: "COc1c(N2CCNC(C)C2)c(F)cc2c(=O)c(C(=O)O)cn(C3CC3)c12 (stereo not shown) [Compound 21, reference compound]"
  value_observed: "−2.55"
- compound: "COc1c(N2CC3CCC[N+]4(CN5C(=N4)C(C(=O)O)=Cc4ccccc45)C3C2)c(F)cc2c(=O)c(C(=O)O)cn(C3CC3)c12.[Cl-] (stereo not shown)"
  value_observed: "−4.21"
- compound: "COc1c(N2CC[N+]3(CN4C(=N3)C(C(=O)O)=Cc3ccccc34)C(C)C2)c(F)cc2c(=O)c(C(=O)O)cn(C3CC3)c12.[Cl-] (stereo not shown)"
  value_observed: "−3.31"
- compound: "CCn1cc(C(=O)O)c(=O)c2cc(F)c(N3CC[N+]4(CC3)CN3C(=N4)C(C(=O)O)=Cc4ccccc43)nc21.[Cl-]"
  value_observed: "−1.60"
- compound: "O=C(O)c1cn(C2CC2)c2cc(N3CCNCC3)c(F)cc2c1=O [Compound 22, ciprofloxacin, reference compound]"
  value_observed: "−2.15"
- compound: "CCn1cc(C(=O)O)c(=O)c2cc(F)c(N3CCNCC3)nc21 [Compound 23, enoxacin, reference compound]"
  value_observed: "−1.98"
- compound: "CC1=CC(C)=C(C(=O)O)C2=N[N+]3(CN12)C(C)CN(c1c(F)c(N)c2c(=O)c(C(=O)O)cn(C4CC4)c2c1F)CC3C.[Cl-] (stereo not shown)"
  value_observed: "−2.84"
- compound: "O=C(O)C1=Cc2ccccc2N2C[N+]3(CCN(c4cc5c(cc4F)c(=O)c(C(=O)O)cn5C4CC4)CC3)N=C12.[Cl-]"
  value_observed: "−1.71"
- compound: "CCn1cc(C(=O)O)c(=O)c2cnc(N3CC[N+]4(CC3)CN3C(=N4)C(C(=O)O)=Cc4ccccc43)nc21.[Cl-]"
  value_observed: "−1.45"
- compound: "C[C@@H]1CN(c2c(F)c(N)c3c(=O)c(C(=O)O)cn(C4CC4)c3c2F)C[C@H](C)N1 [Compound 20, reference compound]"
  value_observed: "−2.88"

* * *

assay_protocol: RP-TLC lipophilicity, silica gel C18, methanol-water
Format: physicochemical
study_conditions: RP-TLC silica gel C18, methanol-water 40 to 70% (v/v), intercept of Soczewiński–Wachtmeister equation

- compound: "COc1c(N2CC[N+]3(CN4C(=N3)C(C(=O)O)=Cc3ccccc34)C(C)C2)c(F)cc2c(=O)c(C(=O)O)cn(C3CC3)c12.[Cl-] (stereo not drawn)"
  R M ^0: 2.78
- compound: "CCn1cc(C(=O)O)c(=O)c2cc(F)c(N3CC[N+]4(CN5C(=N4)C(C(=O)O)=Cc4ccccc45)C(C)C3)c(F)c21.[Cl-] (stereo not drawn)"
  R M ^0: 2.29
- compound: "CC1=CC(C)=C(C(=O)O)C2=N[N+]3(CN12)C(C)CN(c1c(F)c(N)c2c(=O)c(C(=O)O)cn(C4CC4)c2c1F)CC3C.[Cl-] (stereo not drawn)"
  R M ^0: 2.45
- compound: "CCn1cc(C(=O)O)c(=O)c2cc(F)c(N3CC[N+]4(CN5C(C)=CC(C)=C(C(=O)O)C5=N4)C(C)C3)c(F)c21.[Cl-] (stereo not drawn)"
  R M ^0: 1.86
- compound: "CCn1cc(C(=O)O)c(=O)c2cc(F)c(N3CC[N+]4(CC3)CN3C(=N4)C(C(=O)O)=Cc4ccccc43)cc21.[Cl-]"
  R M ^0: 1.65
- compound: "CCn1cc(C(=O)O)c(=O)c2cc(F)c(N3CCNCC3)nc21 [Compound 23, enoxacin, reference compound]"
  R M ^0: 2.70
- compound: "COc1c(N2CC[N+]3(CN4C(C)=CC(C)=C(C(=O)O)C4=N3)C(C)C2)c(F)cc2c(=O)c(C(=O)O)cn(C3CC3)c12.[Cl-] (stereo not drawn)"
  R M ^0: 2.18
- compound: "CCn1cc(C(=O)O)c(=O)c2cc(F)c(N3CC[N+]4(CC3)CN3C(C)=CC(C)=C(C(=O)O)C3=N4)nc21.[Cl-]"
  R M ^0: 1.72
- compound: "C[C@@H]1CN(c2c(F)c(N)c3c(=O)c(C(=O)O)cn(C4CC4)c3c2F)C[C@H](C)N1 [Compound 20, reference compound]"
  R M ^0: 2.85

* * *

assay_protocol: RP-TLC lipophilicity, silica gel C8, methanol-water
Format: physicochemical
study_conditions: RP-TLC silica gel C8, C0 = −RM^0/b
Listing of recorded C 0 by entry.

- molecule: "CCn1cc(C(=O)O)c(=O)c2cc(F)c(N3CC[N+]4(CC3)CN3C(=N4)C(C(=O)O)=Cc4ccccc43)nc21.[Cl-]"
  C 0: 1.23
- molecule: "O=C(O)c1cn(C2CC2)c2cc(N3CCNCC3)c(F)cc2c1=O [Compound 22, ciprofloxacin, reference compound]"
  C 0: 1.61
- molecule: "CCn1cc(C(=O)O)c(=O)c2cnc(N3CC[N+]4(CC3)CN3C(=N4)C(C(=O)O)=Cc4ccccc43)nc21.[Cl-]"
  C 0: 2.35
- molecule: "CCn1cc(C(=O)O)c(=O)c2cc(F)c(N3CC[N+]4(CC3)CN3C(=N4)C(C(=O)O)=Cc4ccccc43)cc21.[Cl-]"
  C 0: 1.04
- molecule: "CCn1cc(C(=O)O)c(=O)c2cc(F)c(N3CCNC(C)C3)c(F)c21 (stereo not shown) [Compound 17, reference compound]"
  C 0: 1.34
- molecule: "C[C@@H]1CN(c2c(F)c(N)c3c(=O)c(C(=O)O)cn(C4CC4)c3c2F)C[C@H](C)N1 [Compound 20, reference compound]"
  C 0: 1.07
- molecule: "CCn1cc(C(=O)O)c(=O)c2cc(F)c(N3CCNCC3)nc21 [Compound 23, enoxacin, reference compound]"
  C 0: 1.23

* * *

Listing of recorded C 0 by entry.
assay_protocol: RP-TLC lipophilicity, silica gel C8, methanol-water
Assay type: physicochemical
study_conditions: RP-TLC silica gel C8, C0 = −RM^0/b

- molecule: "CC1=CC(C)=C(C(=O)O)C2=N[N+]3(CCN(c4cc5c(cc4F)c(=O)c(C(=O)O)cn5C4CC4)CC3)CN12.[Cl-]"
  C 0: 0.94
- molecule: "CC1CN(c2c(F)c(N)c3c(=O)c(C(=O)O)cn(C4CC4)c3c2F)CC(C)[N+]12CN1C(=N2)C(C(=O)O)=Cc2ccccc21.[Cl-] (stereo not drawn)"
  C 0: 0.86
- molecule: "CCn1cc(C(=O)O)c(=O)c2cc(F)c(N3CC[N+]4(CN5C(=N4)C(C(=O)O)=Cc4ccccc45)C(C)C3)c(F)c21.[Cl-] (stereo not drawn)"
  C 0: 1.04
- molecule: "CCn1cc(C(=O)O)c(=O)c2cnc(N3CCNCC3)nc21 [Compound 19, pipemidic acid, reference compound]"
  C 0: 1.65
- molecule: "CCn1cc(C(=O)O)c(=O)c2cc(F)c(N3CC[N+]4(CC3)CN3C(C)=CC(C)=C(C(=O)O)C3=N4)nc21.[Cl-]"
  C 0: 1.06
- molecule: "CCn1cc(C(=O)O)c(=O)c2cc(F)c(N3CCNCC3)cc21 [Compound 18, reference compound]"
  C 0: 1.27

* * *

Listing of recorded b by entry.
assay_protocol: RP-TLC lipophilicity, silica gel C8, methanol-water
Type: physicochemical
study_conditions: RP-TLC silica gel C8, slope of Soczewiński–Wachtmeister equation
readout_type: b

- compound: "CCn1cc(C(=O)O)c(=O)c2cnc(N3CCNCC3)nc21 [Compound 19, pipemidic acid, reference compound]"
  readout_type: "b"
  value_observed: "−1.13"
- compound: "COc1c(N2CC[N+]3(CN4C(=N3)C(C(=O)O)=Cc3ccccc34)C(C)C2)c(F)cc2c(=O)c(C(=O)O)cn(C3CC3)c12.[Cl-] (centres unmarked)"
  readout_type: "b"
  value_observed: "−2.61"
- compound: "COc1c(N2CC[N+]3(CN4C(C)=CC(C)=C(C(=O)O)C4=N3)C(C)C2)c(F)cc2c(=O)c(C(=O)O)cn(C3CC3)c12.[Cl-] (centres unmarked)"
  readout_type: "b"
  value_observed: "−1.97"
- compound: "CCn1cc(C(=O)O)c(=O)c2cc(F)c(N3CC[N+]4(CC3)CN3C(C)=CC(C)=C(C(=O)O)C3=N4)cc21.[Cl-]"
  readout_type: "b"
  value_observed: "−1.63"
- compound: "CCn1cc(C(=O)O)c(=O)c2cc(F)c(N3CCNCC3)nc21 [Compound 23, enoxacin, reference compound]"
  readout_type: "b"
  value_observed: "−2.00"
- compound: "CCn1cc(C(=O)O)c(=O)c2cc(F)c(N3CC[N+]4(CN5C(C)=CC(C)=C(C(=O)O)C5=N4)C(C)C3)c(F)c21.[Cl-] (centres unmarked)"
  readout_type: "b"
  value_observed: "−1.66"
- compound: "CCn1cc(C(=O)O)c(=O)c2cc(F)c(N3CC[N+]4(CN5C(=N4)C(C(=O)O)=Cc4ccccc45)C(C)C3)c(F)c21.[Cl-] (centres unmarked)"
  readout_type: "b"
  value_observed: "−1.83"
- compound: "CC1=CC(C)=C(C(=O)O)C2=N[N+]3(CN12)C(C)CN(c1c(F)c(N)c2c(=O)c(C(=O)O)cn(C4CC4)c2c1F)CC3C.[Cl-] (centres unmarked)"
  readout_type: "b"
  value_observed: "−2.66"
- compound: "CC1CN(c2c(F)c(N)c3c(=O)c(C(=O)O)cn(C4CC4)c3c2F)CC(C)[N+]12CN1C(=N2)C(C(=O)O)=Cc2ccccc21.[Cl-] (centres unmarked)"
  readout_type: "b"
  value_observed: "−3.17"
- compound: "CC1=CC(C)=C(C(=O)O)C2=N[N+]3(CCN(c4cc5c(cc4F)c(=O)c(C(=O)O)cn5C4CC4)CC3)CN12.[Cl-]"
  readout_type: "b"
  value_observed: "−1.90"
- compound: "CCn1cc(C(=O)O)c(=O)c2cc(F)c(N3CC[N+]4(CC3)CN3C(C)=CC(C)=C(C(=O)O)C3=N4)nc21.[Cl-]"
  readout_type: "b"
  value_observed: "−1.50"
